molecular target: AAV9 capsid (adeno-associated virus serotype 9 (AAV9), UniProt Q6JC40); assay: far-Western, overlay or dot blot
Endpoint: binding result

Known binding result results, listed for orientation:
Entry under test: mAb3-4 (antibody, V domains shown) VH: AVESGGGLVKPGGPLRLSCAASGFSLSDNYMTWIRQAPGKGLEWVSYISSSGSFINYADSVKGRFTISRDNAKNSLYLQMNSLRAEDTAVYYCARVLSSGGLTTSWRALWYFDVWGRGTLVTVS VL: TVVTQEPSFSVSPGGTVTLTCGLTSGSVSTSYYPSWYQQTPGQTPRTLIYSTNIRSSGVPDRFSGSILGNKAALTITGAQADDECDYYCVLYMGSGIWVFGGGTKLTVL . Its binding result was binds

Entry under test: mAb2-3 (antibody, V domains shown) VH: VQLVESGGGLVKPGGSLRLSCATSGFTFSDYYMSWIRQAPGKGLEWVSYISSSGSTIYYADSVKGRFTMSRDNAKNSLFLRMNSLRAEDTAVYYCARDQITVDREVIRAHYYYGMDVWGQGTTVTVS VL: DIQMTQSPSSVSASVGDRVTITCRASQGINSYLAWYQQKPGKAPKLLIYAASSLESGVPSRFSGSGSGTDFTLTISSLQPEDFATYYCQQANSFPLTFGGGTKVDI . Its binding result was binds

Entry under test: mAb1-2 (antibody, V domains shown) VH: EVQLVESGGGLVQPGGSLRLSCAASGFIFSNYWMSWVRQAPGKGPEWVANIKQDGSANHYVDSVKGRFTISRDNAKNSLYLQMNSLRAEDTAVYYCAREAYQDWNYDYWGQGTLVTVSS VL: DIQMTQSPSSLSASVGDRVTVTCRASEFISRYLNWYQQKPGKAPKVLIYAASSLQSGVPSRFSGSGSGTDFTLTISSLQPEDFATYYCQQSYSTPYTFGQGTKLEIK . Its binding result was binds

Entry under test: mAb3-3 (antibody, V domains shown) VH: QVQLQESGPGLVKSSETLSLTCTVSGESISSSSHYWGWIRQPPGKGLEFLGNVYYLGSTYYNPSLESRVTILLDTSKNQFSLKVNSVTVADTAVYYCARHGAGSYSGLFFDYWGQGARVIVSS VL: DIQMTQSPSFVSASVGDRVNITCRASQGINSWLAWYQQKPGKAPKLLIYSASSLQSGVPSRFSGSGSGTDFTLTISTLQPEDFATYYCQQANSFPYTFGQGTKVD . Its binding result was binds

Entry under test: mAb3-5 (antibody, V domains shown) VH: EVQLVESGGGLVQPGGSLRLSCAASGFTFSNYGMNWVRQAPGKGLEWVSYISSGGTIYYADSVKGRFTISRDNAKNSVYLQMNSLRAEDTAVYYCARDPAYCGDDCYTIPAHYFDYWGQGTPVTVS VL: DIQMTQSPSSLSASVGDRVTITCRTSQSISRYLNWYQQKPGKAPKLLIYAASSLQSGVPSRFTGSGSGTDFTLTISSLQPEDFATYYCQQSYSIPPVTFGQGTRVD . Its binding result was binds

Next:
Entry under test: mAb3-6 (antibody, V domains shown) VH: EVQLVESGGGLVQPGGSLRLSCSASGFHFSSYEMNWVRQAPGKGLEWVSYISSSGTYIDYADSVKGRFTISRDNPANSLYLQMYSLRAEDTAVYYCARRLWFGELPYSYYYGMDVWGQGTTVTVSS VL: ALTQPASVSGSPGQSITISCTGTSSDIGGYNYVSWYQQHPGKAPELLIFDVSNRPSGVSNRFSGSKSGNTASLTISGLQAEDEADYHCCSYTRTSTVIFGGGTKLTVL . Its binding result was binds

Entry under test: mAb1-3 (antibody, V domains shown) VH: VQLVESGGGVVQPGRSLRLSCAASGFSFSSFVFHWVRQAPGKGLEWVAVISYDGSNKNYADSVKGRFTISRDNSKNTLFLQMNSLSADDTAVYYCARGAICSSTTCYLGDSYYFYGMDVWGQGTTVTVSS VL: LTQPPSVSGAPGQRVTISCTGSRSNIGAGYDVHWYQQLPGTAPKLLIYGNSNRPSGVPDRFSGSKSGTSASLAITGLQTDDEADYYCQSYDSSLSGSVFGGGTKLTVL . Its binding result was binds
